Tested on: rat erythrocytes
Experiment: Hemolysis assay
Format: cell-based
Conditions: pH 7.4
Square brackets hold non-standard residues; d marks the D form. Peptide text beside a SMILES is read from it. Gly(N(CH2)2(3-indolyl)) = O=C(O)CNCCc1c[nH]c2ccccc12; Nspe = C[C@H](NCC(=O)O)c1ccccc1; Nphe = O=C(O)CNCc1ccccc1; Nlys = NCCCCNCC(=O)O
# HC10 listing for each entry below

MOLECULE	UNITS	HC10
C[C@@H](c1ccccc1)N(CC(=O)N(CCCCN)CC(=O)N(CC(=O)N(CC(=O)N(CCCCN)CC(=O)N(CC(=O)N(CC(=O)N(CCCCN)CC(=O)N(CCc1c[nH]c2ccccc12)CC(=O)N(CCc1c[nH]c2ccccc12)CC(N)=O)[C@@H](C)c1ccccc1)[C@@H](C)c1ccccc1)[C@@H](C)c1ccccc1)[C@@H](C)c1ccccc1)C(=O)CN(C(=O)CNCCCCN)[C@@H](C)c1ccccc1 [peptoid 11] (H-[Nlys][Nspe][Nspe][Nlys][Nspe][Nspe][Nlys][Nspe][Nspe][Nlys][Gly(N(CH2)2(3-indolyl))][Gly(N(CH2)2(3-indolyl))]-NH2)	µM	8.3
NCCCCNCC(=O)N(CC(=O)N(CC(=O)N(CCCCN)CC(=O)N(CC(=O)N(CC(=O)N(CCCCN)CC(=O)N(CC(=O)N(CC(=O)N(CCCCN)CC(=O)N(CC(=O)N(CC(N)=O)Cc1ccccc1)Cc1ccccc1)Cc1ccccc1)Cc1ccccc1)Cc1ccccc1)Cc1ccccc1)Cc1ccccc1)Cc1ccccc1 [peptoid 2, reference compound] (H-[Nlys][Nphe][Nphe][Nlys][Nphe][Nphe][Nlys][Nphe][Nphe][Nlys][Nphe][Nphe]-NH2)	µM	20.4
C[C@@H](c1ccccc1)N(CC(N)=O)C(=O)CN(C(=O)CN(CCCCN)C(=O)CN(C(=O)CN(C(=O)CN(CCCCN)C(=O)CN(CCc1c[nH]c2ccccc12)C(=O)CN(CCc1c[nH]c2ccccc12)C(=O)CN(CCCCN)C(=O)CN(CCc1c[nH]c2ccccc12)C(=O)CN(CCc1c[nH]c2ccccc12)C(=O)CNCCCCN)[C@@H](C)c1ccccc1)[C@@H](C)c1ccccc1)[C@@H](C)c1ccccc1	µM	23.2
